These data points were gathered from PubChem BioAssay AID256.

System: CD2F1 mice, L1210 leukemia ip, survival T/C
Assay: NCI In Vivo Anticancer Drug Screen. Data for tumor model L1210 Leukemia (intraperitoneal) in CD2F1 (CDF1) mice
Conditions: endpoint: mean survival time; dose: 200.0 mg/kg/injection; schedule: Q01DX009 (ip); vehicle: Klucel (hydroxypropylcellulose) (HPC); higher = longer survival
Inconclusive results and toxic doses are left out.
ENDPOINT LABEL: T/C

O=C(O)C1CCC(NCc2ccccc2)CC1 (stereo unspecified)    100 % of control
CC(=O)c1ccc(Br)c([N+](=O)[O-])c1    98 % of control
C[Si](C)(C)OSc1ccccc1[N+](=O)[O-]    92 % of control
O=c1[nH]cnc2nc(SCc3ccc([N+](=O)[O-])cc3)[nH]c12    105 % of control
CC1(C)CC2(OC2c2ccccc2)C(=O)c2ccccc21 (stereo unspecified)    94 % of control
N#Cc1cnc(N)[nH]c1=O    91 % of control
Oc1c(Cl)cc(C(c2cc(Cl)c(O)c(Cl)c2)C(c2cc(Cl)c(O)c(Cl)c2)c2cc(Cl)c(O)c(Cl)c2)cc1Cl    115 % of control
O=C1OCC2C1Cc1cc(O)c(O)cc1C2c1ccc(O)c(O)c1 (stereo unspecified)    104 % of control
CCOC(=O)C(=Cc1ccc(C=C(C(=O)OCC)C(=O)OCC)cc1)C(=O)OCC    89 % of control
O=C(Nc1ncccn1)Nc1cc([N+](=O)[O-])ccc1F    98 % of control

# evaluate next
Lab note: measured T/C of Cc1ccc(S(=O)(=O)NC2CCC(C(=O)O)CC2)cc1 (stereo unspecified) was 103 % of control

----------
Tested on: CD2F1 mice, L1210 leukemia ip, survival T/C
Assay: NCI In Vivo Anticancer Drug Screen. Data for tumor model L1210 Leukemia (intraperitoneal) in CD2F1 (CDF1) mice
Conditions: endpoint: mean survival time; dose: 100.0 mg/kg/injection; schedule: Q01DX009 (ip); vehicle: saline with Tween-80; higher = longer survival
Protocol: The antitumor activity of compounds was measured in mice bearing transplantable tumors. Survival or tumor size were measured and the results are expressed as the measurement made in the treated group (T) divided by the measurement made in the vehicle treated control group (C). The tumor model used in this assay is L1210 Leukemia (intraperitoneal) in CD2F1 (CDF1) mice
Toxic doses and inconclusive results are not listed.
ENDPOINT LABEL: T/C

Consider the following illustrative entries.
CCCCC/C=C/C/C=C\CCCCCCCC1=C(O)C(=O)C(OC)=C(OC)C1=O    102 % of control
O=C(CNC(=O)NCc1ccco1)NNC(=O)Nc1ccc(Cl)c([N+](=O)[O-])c1    94 % of control
CC1OCOC(C)C1C (stereo unspecified)    91 % of control
N#CC(c1ccccc1)C(CC(=O)c1ccccc1)c1ccccc1 (stereo unspecified)    88 % of control
COc1ccc2cc(O)ccc2c1    96 % of control

Short answer for "C(=N\Nc1nn[nH]n1)/c1ccccc1" : T/C was 108 % of control

----------
System: CD2F1 mice, L1210 leukemia ip, survival T/C
Assay: NCI In Vivo Anticancer Drug Screen. Data for tumor model L1210 Leukemia (intraperitoneal) in CD2F1 (CDF1) mice
Conditions: endpoint: mean survival time; dose: 25.0 mg/kg/injection; schedule: Q01DX009 (ip); vehicle: other; higher = longer survival
Procedure: The antitumor activity of compounds was measured in mice bearing transplantable tumors. Survival or tumor size were measured and the results are expressed as the measurement made in the treated group (T) divided by the measurement made in the vehicle treated control group (C). The tumor model used in this assay is L1210 Leukemia (intraperitoneal) in CD2F1 (CDF1) mice
Toxic doses and inconclusive results are not listed.
We begin with a simple list: items and their reported T/C.

CC1(C)/C(=N/Nc2ccc([N+](=O)[O-])cc2[N+](=O)[O-])C=Cc2ccccc21    94 % of control
CCOC(=O)C(=CCBr)C(=O)OCC    102 % of control

Quick note, T/C for "CC1(C)N=C(N)N=C(N)N1c1cccc(OCCOc2ccc(NC(=O)CBr)cc2)c1" landed at 110 % of control

The value of T/C measured for the compound "COc1c2c(c(OC)c3c1C(=O)c1ccccc1C3=O)CC=CC2" turned out to be 100 % of control

----------
Test system: CD2F1 mice, L1210 leukemia ip, survival T/C
Experiment: NCI In Vivo Anticancer Drug Screen. Data for tumor model L1210 Leukemia (intraperitoneal) in CD2F1 (CDF1) mice
Conditions: endpoint: mean survival time; dose: 200.0 mg/kg/injection; schedule: Q01DX009 (ip); vehicle: saline with Tween-80; higher = longer survival
Inconclusive results and toxic doses are left out. Non-standard residues stand in square brackets, D forms with d. Residues, ends and D or L forms follow the SMILES beside them. ξ: configuration not given here. *: point of attachment. Bz = O=C(c1ccccc1)*; Bn = c1ccc(C*)cc1; ξC = NC(CS)C(=O)O
Each entry below lists one item and its recorded T/C value.

Some compounds with recorded T/C:
O=C(CNC(=O)Nc1cccc([N+](=O)[O-])c1)N/N=C/c1c(O)ccc2ccccc12    95 % of control
N=Cc1c(O)n(-c2ccccc2)c(=O)[nH]c1=O    101 % of control
O=C1C=CC(=O)N1c1nccs1    95 % of control
CS/C(N)=N\S(=O)(=O)c1ccc(NC(C)=O)cc1    95 % of control
O=c1cc[nH]cc1    100 % of control

# T/C of "CN(C)c1ccc(/C=N/NC(=O)CNC(=O)Nc2cccc(C(F)(F)F)c2)c(Cl)c1" = 88 % of control

Data point: BrC1(Br)C2CCCCCCC21 (configuration not stated) ; T/C = 87 % of control

Query COC(=O)C(CSCc1ccccc1)NC(=O)CNC(=O)c1ccccc1 (configuration not stated) (Bz-Gly-[ξC](Bn)-OMe) yields T/C of 94 % of control

----------
Entries and their T/C values follow.
Tested on: CD2F1 mice, L1210 leukemia ip, survival T/C
Assay: NCI In Vivo Anticancer Drug Screen. Data for tumor model L1210 Leukemia (intraperitoneal) in CD2F1 (CDF1) mice
Details: endpoint: mean survival time; dose: 50.0 mg/kg/injection; schedule: Q01DX009 (ip); vehicle: Klucel (hydroxypropylcellulose) (HPC); higher = longer survival
Toxic doses and inconclusive results are not listed.

Guide cases for T/C, answers given:
Fc1ccc(NC(=S)SCc2ccc(Cl)c(Cl)c2)cc1F    112 % of control
COc1ccc(NC(=O)Nc2cc(C)on2)c(Cl)c1    91 % of control
O=C(Nc1ncccn1)Nc1cc([N+](=O)[O-])ccc1F    93 % of control

Recorded result, "NCc1cccn1OCc1ccccc1" , T/C: 96 % of control

O=C1OCC2C1Cc1cc(O)c(O)cc1C2c1ccc(O)c(O)c1 (configuration not stated) has a reported T/C of 96 % of control

Lookup result for "Clc1ccc([PH+](c2ccc(Cl)cc2)c2ccc(Cl)cc2)cc1.Clc1ccc([PH+](c2ccc(Cl)cc2)c2ccc(Cl)cc2)cc1.[Cl][Hg][Cl]" ; measured T/C: 104 % of control

T/C for O=C(OCC(OC(=O)c1ccccc1)C(OC(=O)c1ccccc1)C(COC(=O)c1ccccc1)OC(=O)c1ccccc1)c1ccccc1 (configuration not stated) is 97 % of control

----------
Test system: CD2F1 mice, L1210 leukemia ip, survival T/C
Experiment: NCI In Vivo Anticancer Drug Screen. Data for tumor model L1210 Leukemia (intraperitoneal) in CD2F1 (CDF1) mice
Conditions: endpoint: mean survival time; dose: 25.0 mg/kg/injection; schedule: Q01DX001 (ip); vehicle: saline with Tween-80; higher = longer survival
Inconclusive results and toxic doses are left out.
ENDPOINT LABEL: T/C

Example entries begin here.
C(#Cc1ccccc1)/C=C/C=C/c1ccccc1    95 % of control
Nc1nc(N)c(-c2ccc(Cl)cc2)c(COc2ccc(CCC3(CCl)OCCO3)cc2)n1    101 % of control
O=c1[nH][nH]c(=O)c2c1oc1c(=O)[nH][nH]c(=O)c12    104 % of control

In plain terms, "OCCOc1ccc2ccccc2c1-c1c(OCCOc2ccc3ccccc3c2-c2c(OCCO)ccc3ccccc23)ccc2ccccc12" has a documented T/C of 95 % of control

T/C in this record for O=C1C2C3SC(c4nc5ccccc5cc43)C2C(=O)N1c1ccccc1 (centres undefined) : 92 % of control

The compound identified as "CC1CC[N-]CC1.CC1CC[N-]CC1.[Cl][Pt+2][Cl]" registered its T/C at 112 % of control

----------
Test system: CD2F1 mice, L1210 leukemia ip, survival T/C
Test: NCI In Vivo Anticancer Drug Screen. Data for tumor model L1210 Leukemia (intraperitoneal) in CD2F1 (CDF1) mice
Conditions: endpoint: mean survival time; dose: 200.0 mg/kg/injection; schedule: Q04DX003 (ip); vehicle: saline; higher = longer survival
Inconclusive results and toxic doses are left out.
ENDPOINT LABEL: T/C

OCCN=Cc1c(Cl)ccc(Cl)c1Cl    101 % of control

Would you kindly look at the next entry?
# T/C of CCCC(N(C)C)P(=O)(O)O (stereo not given) = 101 % of control
